Provenance of the data: patent US6617312B1

- target desc: Rhipicephalus appendiculatus rFS-HBP2, His6-tagged, expressed in Spodoptera frugiperda Sf21 cells (baculovirus), SEQ ID NO: 18 (Rhipicephalus appendiculatus, UniProt O77421)
- Sequence (O77421 20-190, added parts left off): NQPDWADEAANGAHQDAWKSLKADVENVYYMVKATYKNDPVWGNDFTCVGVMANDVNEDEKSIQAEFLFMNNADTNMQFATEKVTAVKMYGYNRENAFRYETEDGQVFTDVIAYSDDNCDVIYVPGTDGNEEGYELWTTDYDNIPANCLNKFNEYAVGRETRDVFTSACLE
parameter measured: Kd (nM)
One number for each entry, in nM.

Which Kd value is on record for `NCCc1c[nH]cn1` ?
1.7

###

- target desc: Rhipicephalus appendiculatus rMS-HBP1, His6-tagged, expressed in Spodoptera frugiperda Sf21 cells (baculovirus), SEQ ID NO: 20 (Rhipicephalus appendiculatus, UniProt O77422)
- Sequence (O77422 19-200, added parts left off): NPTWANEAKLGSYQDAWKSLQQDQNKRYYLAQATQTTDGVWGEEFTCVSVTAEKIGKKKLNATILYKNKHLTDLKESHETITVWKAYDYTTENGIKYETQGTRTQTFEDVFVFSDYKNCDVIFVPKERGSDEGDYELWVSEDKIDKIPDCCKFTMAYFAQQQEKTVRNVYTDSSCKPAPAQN
parameter measured: Kd (nM)
One number for each entry, in nM.

Which Kd value is on record for `NCCc1c[nH]cn1` ?
1.2

###

- target desc: Rhipicephalus appendiculatus rFS-HBP1, His6-tagged, expressed in Spodoptera frugiperda Sf21 cells (baculovirus), SEQ ID NO: 16 (Rhipicephalus appendiculatus)
- Sequence (O77420 19-190, added parts left off): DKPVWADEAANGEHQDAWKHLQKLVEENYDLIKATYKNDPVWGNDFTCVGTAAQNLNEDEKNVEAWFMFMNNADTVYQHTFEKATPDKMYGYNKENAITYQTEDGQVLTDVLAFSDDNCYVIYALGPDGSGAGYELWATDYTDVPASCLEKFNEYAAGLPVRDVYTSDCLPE
parameter measured: Kd (nM)
Give bare numbers, in nM.

Which Kd value is on record for `NCCc1c[nH]cn1` ?
78
